Test system: hMSCs
Assay: STRO-1 stemness marker expression in hMSCs (immunostaining, ImageJ quantification)
Assay type: cell-based, Human
Conditions: SEQ ID NO: 1143 to 1180 tested in solution
endpointLabel: STRO-1 expression (%)
Express it in %; write the number only.

Take a look at these entries with their results.
| polymerSequence | unitSpec | STRO-1 expression |
| --- | --- | --- |
| RVPSTSSAPTKMKPLSMLYV (GFR-binding peptide) [SEQ ID NO: 1169] | % | 22 |
| STPPTSSVPTELSPISTLYK (GFR-binding peptide) [SEQ ID NO: 1147] | % | 21 |

Now consider a different sequence.
The recorded STRO-1 expression for entry STPPTSSAPVGQSPISMLYI (GFR-binding peptide) [SEQ ID NO: 1162] equals 19

* * *

We begin with a simple list: items and their reported STRO-1 expression.
Test system: hMSCs
Experiment: STRO-1 stemness marker expression in hMSCs (immunostaining, ImageJ quantification)
Assay type: cell-based, Human
Details: grafted on a PET surface
Unit % implied. Number only.

Worked examples follow.
| polymerSequence | targetSystem | STRO-1 expression (%) |
| --- | --- | --- |
| MALPQPRGSSLSKAPVVVAPCMALKRVNIRSIVFEVLKTMNQNCIHETPN (Previously reported sequence) [SEQ ID NO: 1123, reference compound] | hMSCs | 82 |
| VEQLSNMVVK (Previously reported sequence) [SEQ ID NO: 1086, reference compound] | hMSCs | 98 |

Field: next sequence
The value of STRO-1 expression recorded for CIPKPSSAPTELSAISMLYL (Previously reported sequence) [SEQ ID NO: 1134, reference compound] when tested on hMSCs reads 83

* * *

Tested on: hMSCs
Test: STRO-1 stemness marker expression in hMSCs (immunostaining, ImageJ quantification)
Format: cell-based, Human
Conditions: grafted on a PET surface
endpointLabel: STRO-1 expression

// below: answered sequences
| polymerSequence | measuredValue |
| --- | --- |
| IKSPARHSAPTHQEPLP (Previously reported sequence) [SEQ ID NO: 1097, reference compound] | 98% |
| SSVPAVCSATSATGPYSSGSVEVTFDVYATTVY (Previously reported sequence) [SEQ ID NO: 1116, reference compound] | 92% |
| TPTVVSATSL (Previously reported sequence) [SEQ ID NO: 1111, reference compound] | 98% |
| SSVPAVCSATSATGPYSTATNTVVVFDVYATTVY (SSVPAVCSATSATGPYSTATNTVWFDVYATTVY; Previously reported sequence) [SEQ ID NO: 1117, reference compound] | 91% |
| LSLLAPPEPVWNHETSYGSDCHVPTNVNAISKMIDKSNHQTG (Previously reported sequence) [SEQ ID NO: 1125, reference compound] | 93% |

Okay, next one:
Value of measured STRO-1 expression for the entry TKPLSSLLFPNWNTTTTPTPPRP (Previously reported sequence) [SEQ ID NO: 1101, reference compound] : 91%

* * *

Quick list: STRO-1 expression per entry.
Test system: hMSCs
Assay: STRO-1 stemness marker expression in hMSCs (immunostaining, ImageJ quantification)
Format: cell-based, Human
Settings: grafted on a PET surface
Respond with the bare value in %.

Example results:
| polymerSequence | targetSystem | measuredValue |
| --- | --- | --- |
| VPTELSPISLLYLDEFEKVTLKNYQDMVVDG (Previously reported sequence) [SEQ ID NO: 1110, reference compound] | hMSCs | 87 |
| SVPAVCSATSATGPYSTATNTVVVPSIVATGGTT [SEQ ID NO: 1115, reference compound] | hMSCs | 92 |
| KPCCAPTQLSAISVLYFDDSSNVILKKYRNMVVRACGCR (Previously reported sequence) [SEQ ID NO: 1141, reference compound] | hMSCs | 80 |
| MAAQDEWRDAITLTMGRDLKKVPQHLNAISVIDPVT (Previously reported sequence) [SEQ ID NO: 1124, reference compound] | hMSCs | 83 |
| DKPEESSSTPTHAQCICSSLSEAIVSSVLSTRLVLSQISLTRAKRAFE (Previously reported sequence) [SEQ ID NO: 1121, reference compound] | hMSCs | 87 |
| AETLHTLGLSAPVIESAISDAI (Previously reported sequence) [SEQ ID NO: 1136, reference compound] | hMSCs | 93 |

Now examine the next entry.
The reported value for ANINKDRDNVPAATSSLSKAYNP (Previously reported sequence) [SEQ ID NO: 1119, reference compound] in terms of STRO-1 expression is 92

* * *

STRO-1 expression reference
System: hMSCs
Assay: STRO-1 stemness marker expression in hMSCs (immunostaining, ImageJ quantification)
Format: cell-based, Human
Conditions: SEQ ID NO: 1143 to 1180 tested in solution
Quick note: give the figure in %, leave out the unit.

Some solved entries appear below for comparison.
| polymerSequence | unitSpec | STRO-1 expression |
| --- | --- | --- |
| AASKASSTPTDLNAISTLYF (GFR-binding peptide) [SEQ ID NO: 1158] | % | 20 |
| STPPTSSSRVQLSAISMLYL (GFR-binding peptide) [SEQ ID NO: 1154] | % | 15 |
| KIPKASSVPTKMKPLSVLYV (GFR-binding peptide) [SEQ ID NO: 1168] | % | 21 |
| GIPEPSSVSQELSATSMLYY (GFR-binding peptide) [SEQ ID NO: 1160] | % | 22 |
| KIPKASSTQVRLRSVKTAKV (GFR-binding peptide) [SEQ ID NO: 1178] | % | 35 |
| GIPEPSSAPVDLKPLSTLYV (GFR-binding peptide) [SEQ ID NO: 1148] | % | 11 |
| KIPKASSTQVGQSATSILYY (GFR-binding peptide) [SEQ ID NO: 1161] | % | 27 |
| RVPSTSSAPTKMNAISMLYF (GFR-binding peptide) [SEQ ID NO: 1145] | % | 23 |

Consider RVPSTSSVPTGQSAISTLYL (GFR-binding peptide) [SEQ ID NO: 1144] . Its measured STRO-1 expression is 19

Reported STRO-1 expression of AASKASSVPQRLRSVKVAKV (GFR-binding peptide) [SEQ ID NO: 1177] : 31

Measured STRO-1 expression, AASKASSSRVKMSPINVLYF (GFR-binding peptide) [SEQ ID NO: 1167] : 19

Reported STRO-1 expression of STPPTSSVPTEVSPINTLYF (GFR-binding peptide) [SEQ ID NO: 1166] : 19

meta.source: patent US11578110B2
